test: NCI Yeast Anticancer Drug Screen. Data for the mlh1 rad18 strain (AID 175); details: S. cerevisiae mlh1 rad18 strain growth inhibition; at 50.0 µM; stronger effect = higher value
The panel holds about 79,000 compounds, 15% with a hit somewhere; the sample as a whole holds those more often.
endpoint: growth inhibition (%)
Lab book: enter the figure in %, no units written.

Check out these entries, answers already filled in.
compound: C[C@@H]1C[C@H](C)OC(CO)O1 (stereo partly specified) (tested in a mixture with another compound)
data-value: 19.3

compound: CNC(=O)OCc1c(COC(=O)NC)c(C)n(-c2ccc(F)cc2)c1C
data-value: -12.2

compound: CC(=O)Oc1cccc2ccccc12
data-value: -5.65

The compound listed as `COC(=O)c1[nH]c(C)c(C(=O)OC)c1C` has a reported growth inhibition of -12.8

Form: compound = `CC(=O)OC1c2ccccc2Cc2ccccc21` ; growth inhibition = 13.1

The reported value for Nc1ncnc2c1ncn2C1OC(CO)C(NC(=O)C(N)CCC(=O)O)C1O (stereo unspecified) in terms of growth inhibition is -5.3

In plain terms, `O=C(Nc1ccccc1C(=O)N/N=C/c1ccc(Cl)cc1)c1ccccc1Cl` has a documented growth inhibition of 25.8

So, `CCOC(=O)CSc1cc(C)[o+]c(C)c1` ? Its growth inhibition was -3.15

The compound identified as `O=C(C[n+]1csc2ccccc21)c1ccc(I)cc1` registered its growth inhibition at 20.4

Where do these numbers come from? They come from PubChem BioAssay (NCI).
